Origin of values: patent US20250195521A1

Biological target: KRAS G13C (Homo sapiens (Human), UniProt P01116+P62937, G13C)
Sequence (P01116 other isoform, or with tags, fused parts or gaps G13C): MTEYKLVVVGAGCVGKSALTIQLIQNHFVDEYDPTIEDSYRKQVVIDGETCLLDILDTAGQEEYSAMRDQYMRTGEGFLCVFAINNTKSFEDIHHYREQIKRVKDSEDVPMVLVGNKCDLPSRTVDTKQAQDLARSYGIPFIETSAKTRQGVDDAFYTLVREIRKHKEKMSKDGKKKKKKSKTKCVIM
Sequence (P62937 whole entry): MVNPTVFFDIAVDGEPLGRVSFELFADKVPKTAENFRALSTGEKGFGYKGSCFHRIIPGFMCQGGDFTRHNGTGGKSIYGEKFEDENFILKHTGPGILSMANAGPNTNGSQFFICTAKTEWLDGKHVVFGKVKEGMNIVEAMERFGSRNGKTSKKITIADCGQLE
Assay: Ras-Raf disruption/FRET/MOA assay (BRAF RBD, Cyclophilin A)
Assay type: biochemical
Settings: read-out: KRAS G13C FRET IC50
Protocol: Compound is present in plate wells as a 10-point 3-fold dilution series starting at a final concentration of 30 μM. After incubation at 25° C. for 3 hours, a mixture of Anti-His Eu—W1024 and anti-GST allophycocyanin is then added to assay sample wells at final concentrations of 10 nM and 50 nM, respectively, and the reaction incubated for an additional 1.5 hours. […]
pIC50: −log10 of the molar value.
value.kind: pIC50

Batch lookup, pIC50 per entry.
1. CCn1c(-c2cc(N3CCN(C)CC3)cnc2[C@H](C)OC)c2c3cc(ccc31)-c1nc(co1)C[C@H](NC(=O)[C@H]1[C@H](C)[C@@H]1C)C(=O)N1CCC[C@H](N1)C(=O)OCC(C)(C)C2 [Compound A391]
2. CCn1c(-c2cccnc2[C@H](C)OC)c2c3cc(ccc31)-c1cc(O)cc(c1)C[C@H](NC(=O)[C@H](C(C)C)N(C)C(=O)C1CCNC13CCC3)C(=O)N1CCC[C@H](N1)C(=O)OCC(C)(C)C2 (some centres unmarked) [Compound A393]

1: 7.00 to 8.00; 2: 7.00 to 8.00
